- Test system: Escherichia coli strain MC4100 IMP-4213, which harbors an LptD mutation
- condition parameters: E. coli MC4100 IMP-4213; 35° C., 22 hours
Where a SMILES comes first, the peptide text is derived from it. The star is where a group is joined. boroAla((+)-pinanediol) = C[C@H](N*)B1O[C@@H]2C[C@@H]3C[C@@H](C3(C)C)[C@]2(C)O1; X26 = CCCCCCCCc1ccc(C(=O)*)c(C)c1; X17 = CCCCCCCCCNCCCC(=O)*
Let's look at some compounds and their measured MIC (μg/mL) E. coli.
Provide the reading as a plain figure in µg/mL.

Report MIC (μg/mL) E. coli for CCCCCCCCCNCCCC(=O)N[C@@H](CCCCN)C(=O)N[C@H](C(=O)N[C@@H](C)C(=O)N[C@@H](CCCCN)C(=O)N[C@@H](C)B1O[C@@H]2C[C@@H]3C[C@@H](C3(C)C)[C@]2(C)O1)[C@@H](C)O [Compound 227] (X17-KTAK-{boroAla((+)-pinanediol)}) please. 64

Next:
Quick one: MIC (μg/mL) E. coli of CCCCCCCCc1ccc(C(=O)N[C@@H](CCCCN)C(=O)N[C@H](C(=O)N[C@@H](C)C(=O)N[C@@H](CCCCN)C(=O)N[C@@H](C)B2O[C@@H]3C[C@@H]4C[C@@H](C4(C)C)[C@]3(C)O2)[C@@H](C)O)c(C)c1 [Compound 274] (X26-KTAK-{boroAla((+)-pinanediol)}) ? 0.5

----------
MIC (μg/mL) E. coli listing for selected compounds.
- Test system: Escherichia coli strain MC4100 IMP-4213, which harbors an LptD mutation
- condition parameters: E. coli MC4100 IMP-4213; 35° C., 22 hours
*1 amine or outer side, *2 acyl side, *3 side chain or, on linkers, in order; H or OH if unused. Where a SMILES comes first, the peptide text is derived from it. [ ]: non-standard residue; d: D form. The star is where a group is joined. boroAla((+)-pinanediol) = C[C@H](N*)B1O[C@@H]2C[C@@H]3C[C@@H](C3(C)C)[C@]2(C)O1; Benzoyl(4-(4-Cl-Ph)) = O=C(c1ccc(-c2ccc(Cl)cc2)cc1)*; X1 = C[C@H](N[*:1])C(=O)C(=O)[*:2]; Myristoyl = CCCCCCCCCCCCCC(=O)*; NHPhenethyl = c1ccc(CCN*)cc1; Dab = NCC[C@H](N)C(=O)O; Dap = NC[C@H](N)C(=O)O
// units = µg/mL; emit number, no label

Endpoint output: MIC (μg/mL) E. coli of CCCCCCCCCCCCCC(=O)N[C@@H](CCN)C(=O)N[C@H](C(=O)N[C@@H](C)C(=O)N[C@@H](CCCCN)C(=O)N[C@@H](C)B1O[C@@H]2C[C@@H]3C[C@@H](C3(C)C)[C@]2(C)O1)[C@@H](C)O [Compound 272] (Myristoyl-[Dab]TAK-{boroAla((+)-pinanediol)}) . Value? 0.13

# next compound below
Could you tell me which MIC (μg/mL) E. coli is on file for C[C@H](NC(=O)[C@@H](NC(=O)[C@H](CN)NC(=O)c1ccc(-c2ccc(Cl)cc2)cc1)[C@@H](C)O)C(=O)N[C@@H](CCCCN)C(=O)N[C@@H](C)C(=O)C(=O)NCCc1ccccc1 [Compound 110] ({Benzoyl(4-(4-Cl-Ph))}-[Dap]TAK[X1]-NHPhenethyl) ? 64
